tested on: MDA-MB-435; test: NCI tumour cell line growth inhibition, 48 h
Consider the following compounds and their measured TGI readings.
Could you give me the number in µM? Just the number is fine.

>>> obsvalue("C=C1C(=O)O[C@H]2[C@H]1CC/C(COC(=O)c1cc3ccccc3o1)=C\\CC[C@@]1(C)O[C@@H]21")
2.9

Please find the next compound below.
Q: Returns the measured TGI for the input compound. Input: Cc1cc(O)cc2c1[C@]1(C)CCC3C(C)(C)CCC[C@]3(C)[C@H]1C2 (stereo partly drawn)
Result: 33.4

====

tested on: HCT-15 colon; test: NCI tumour cell line growth inhibition, 48 h; in the data active = GI50 below about 0.43 µM; inactive = the rest
Choose one outcome from this list and give only that: True = active, False = inactive

Q: Outcome? `COc1ccc(-c2cc(-c3cccn3C)c(C#N)c(=O)[nH]2)cc1OC`
Result: False

Q: Which outcome did this test record for the compound `C=C1C(=O)O[C@H]2[C@H]1CC/C(COC(=O)c1cc3ccccc3o1)=C\CC[C@@]1(C)O[C@@H]21` ?
Result: False

Q: Just curious, what result did `C=C1C(=O)O[C@H]2[C@H]1CC/C(COC(=O)C(=O)c1cn(C)c3ccc(Cl)cc13)=C\CC[C@@]1(C)O[C@@H]21` get here?
Result: True

Q: Give the logged outcome of this assay for the following compound: `Cc1ccc(Cc2cnc(NC(=O)/C=C/c3cccc(C)c3)s2)cc1`
Result: True

Q: Entry `COc1ccc(-c2oc(=O)ccc2-c2cc(OC)c(OC)c(OC)c2)cc1O` : call = ?
Result: False

Q: Please indicate how the test categorized `C/C(=N\Nc1cc(C)c2ccccc2n1)c1ccccn1` .
Result: True
